B1: RHOBTB2 (parent)
chain: LYTGELDENERDLMHIAHIAELLE

- Variants of: B1
- ASSAY: protein stability index of a GFP-peptide fusion (GPS, HEK-293T) (PSI 1-6); higher = more stable;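 note: lentivirally expressed fusions sorted by FACS into six bins by GFP to DsRed ratio, PSI derived from sequencing read proportions per bin multiplied by bin number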
- CONDITION_PARAMETERS: c terminus: a fixed tail appended
Reported protein stability index by item:
ASSAY_METRIC: protein stability index

MUTATION_NOTATION | ASSAY_VALUE
I16M | 2.51
D7H | 1.62
H18M | 2.71
M14H | 3.1
N9E | 3.15
R11S | 2.5
H15Q | 2.4
A20W | 2.37
D12K | 3.02
E8G | 1.91
L22T | 3
T3A | 2.58
I16G | 4.06
E5I | 1.65
I19Q | 3.37
Y2C | 2.04
N9H | 2.54
H18K | 3.54
E8M | 1.78
L13M | 2.92
L1Y | 2.78
L23Y | 3.31
A20Q | 3.72
E8P | 2.15
E10Q | 2.61
L22V | 2.72
D12Q | 2.4
I16Y | 2.93
M14Q | 2.39
R11A | 2.27
L23N | 4.01
Y2Q | 3.01
A17W | 1.87
I16Q | 3.87
D7K | 2.33
L22K | 3.67
R11N | 2.1
E21R | 1.85
E8K | 2.28
A17F | 2.38
A20Y | 2.53
L23I | 2.66
E10Y | 1.95
L1W | 2.43
G4H | 1.99
I16P | 4.15
L13T | 3.34
E10K | 1.94
E10I | 2.26
D12V | 2.96
E10N | 2.83
E24L | 2.18
D12A | 2.01
L1M | 2.72
N9T | 2.71
G4S | 2.42
D7A | 2.48
I19G | 4.45
H18A | 1.65
R11Y | 2.42
H18E | 3.32
E10R | 2.58
A20L | 1.61
N9R | 2.79
I19S | 3.26
T3D | 3
L13I | 2.38
A20V | 1.93
E8R | 2.46
D12Y | 1.66
T3I | 2.15
T3S | 2.61
D12H | 3.13
H15D | 3.36
L13N | 3.28
Y2D | 3.68
M14K | 2.89
H15T | 1.53
L23E | 5.05
A17R | 2.7
L13Q | 3.29
I16A | 4.07
E21K | 2.07
D7F | 2.3
E21I | 1.77
E8Y | 2.23
I19F | 2.67
A20D | 3.34

These data points were gathered from the supplement of paper PMC10567573.
